- protocol: Vapor pressure measurement of pyrethroid compounds with the vapor pressure measuring apparatus
- condition parameters: 25° C.
value type: Vapor Pressure

Measured Vapor Pressure of C=CCC1=C(C)C(OC(=O)C2C(C)(C)C2(C)C)CC1=O (racemic) [terallethrin] : 4.2 × 10^−4 mmHg

Measured Vapor Pressure of CC1(C)C(C=C(Cl)Cl)C1C(=O)OCc1cccc(Oc2ccccc2)c1 (mixture of isomers) [permethrin] : 1.1 × 10^−6 mmHg

Measured Vapor Pressure of C#CCC1=C(C)C(OC(=O)C2C(C=C(C)C)C2(C)C)CC1=O (mixture of isomers) [prallethrin] : 6.9 × 10^−5 mmHg

Measured Vapor Pressure of CC(C)=CC1C(C(=O)OCN2C(=O)C3=C(CCCC3)C2=O)C1(C)C (stereo not drawn) [tetramethrin] : 4.4 × 10^−6 mmHg

Measured Vapor Pressure of CC(C)=CC1C(C(=O)OCN2C(=O)C3=C(CCCC3)C2=O)C1(C)C (mixture of isomers) [phthalthrin] : 6.6 × 10^−8 mmHg

Measured Vapor Pressure of CC(C)=CC1C(C(=O)OC(C#N)c2cccc(Oc3ccccc3)c2)C1(C)C (racemic) [cyphenothrin] : 1.9 × 10^−6 mmHg

Measured Vapor Pressure of C#CCc1ccc(COC(=O)C2C(C=C(C)C)C2(C)C)o1 (mixture of isomers) [furamethrin] : 2.2 × 10^−4 mmHg

Measured Vapor Pressure of COP(=O)(OC)OC=C(Cl)Cl [DDVP] : 1.9 × 10^−2 mmHg

Measured Vapor Pressure of CC(C)=CC1C(C(=O)OCc2cccc(Oc3ccccc3)c2)C1(C)C (mixture of isomers) [phenothrin] : 2.2 × 10^−6 mmHg

Measured Vapor Pressure of C#CC(OC(=O)C1C(C=C(C)C)C1(C)C)/C(C)=C/CC (mixture of isomers) [empenthrin] : 9.2 × 10^−4 mmHg

Measured Vapor Pressure of CC1(C)C(C=C(Cl)Cl)C1C(=O)OCc1c(F)c(F)cc(F)c1F (stereo not drawn) [benfluthrin] : 1.5 × 10^−4 mmHg

Measured Vapor Pressure of CC(C)=CC1C(C(=O)OCc2coc(Cc3ccccc3)c2)C1(C)C (mixture of isomers) [resmethrin] : 7.1 × 10^−6 mmHg

Reference source: patent US6391329B1
